Experiment: Determination of hydrolytic stability (5:1 dioxane/buffer, HPLC)
Format: physicochemical
Conditions: 5:1 dioxane/buffer solution, pH = 8.0, 23° C., test ended after 24 or 192 hours, read-out: Hydrolytic stability t1/2
Where a name gives a salt, the structure may show the parent alone.
Listing: half-life of selected molecules
readoutKind: half-life

>>> result("C=CCOC(=O)N[C@H](C(=O)OC(C)c1ccc([C@H]2C[C@@]3(C)C(CC[C@@]3(O)C(F)(F)C(F)(F)F)C3CCC4=CC(=O)CCC4=C32)cc1)C(C)C (mixture of isomers)")
"> 192 h"
>>> result("CC(OC(=O)CCc1nccs1)c1ccc([C@H]2C[C@@]3(C)C(CC[C@@]3(O)C(F)(F)C(F)(F)F)C3CCC4=CC(=O)CCC4=C32)cc1 (mixture of isomers)")
"> 192 h"
>>> result("CC(C)C(=O)OC(C)c1ccc([C@H]2C[C@@]3(C)C(CC[C@@]3(O)C(F)(F)C(F)(F)F)C3CCC4=CC(=O)CCC4=C32)cc1 (mixture of isomers)")
"> 24 h"
>>> result("CC(OC(=O)[C@@H]1CCCN1)c1ccc([C@H]2C[C@@]3(C)C(CC[C@@]3(O)C(F)(F)C(F)(F)F)C3CCC4=CC(=O)CCC4=C32)cc1 (mixture of isomers) [Example 13, hydrochloride]")
"> 192 h"
>>> result("CC(OC(=O)CC(C)(C)C)c1ccc([C@H]2C[C@@]3(C)C(CC[C@@]3(O)C(F)(F)C(F)(F)F)C3CCC4=CC(=O)CCC4=C32)cc1 (mixture of isomers)")
"> 24 h"
>>> result("CC(OC(=O)[C@@H](NC(=O)OC(C)(C)C)C(C)C)c1ccc([C@H]2C[C@@]3(C)C(CC[C@@]3(O)C(F)(F)C(F)(F)F)C3CCC4=CC(=O)CCC4=C32)cc1 (mixture of isomers)")
"> 192 h"
>>> result("CC(OC(=O)[C@H](C)NC(=O)OC(C)(C)C)c1ccc([C@H]2C[C@@]3(C)C(CC[C@@]3(O)C(F)(F)C(F)(F)F)C3CCC4=CC(=O)CCC4=C32)cc1 (mixture of isomers)")
"> 24 h"
>>> result("CC(=O)O[C@H](C)c1ccc([C@H]2C[C@@]3(C)C(CC[C@@]3(O)C(F)(F)C(F)(F)F)C3CCC4=CC(=O)CCC4=C32)cc1 (mixture of isomers)")
"> 24 h"
>>> result("CC(OC(=O)[C@@H](C)NC(=O)OC(C)(C)C)c1ccc([C@H]2C[C@@]3(C)[C@@H](CC[C@@]3(O)C(F)(F)C(F)(F)F)[C@@H]3CCC4=CC(=O)CCC4=C32)cc1 (mixture of isomers)")
"> 24 h"
>>> result("CC(OC(=O)[C@@H]1CCCN1C(=O)OC(C)(C)C)c1ccc([C@H]2C[C@@]3(C)C(CC[C@@]3(O)C(F)(F)C(F)(F)F)C3CCC4=CC(=O)CCC4=C32)cc1 (mixture of isomers)")
"> 192 h"
>>> result("CC(C)CC(=O)OC(C)c1ccc([C@H]2C[C@@]3(C)C(CC[C@@]3(O)C(F)(F)C(F)(F)F)C3CCC4=CC(=O)CCC4=C32)cc1 (mixture of isomers)")
"> 24 h"

====

Test: Determination of stability in human plasma
Format: in vitro ADME
Conditions: 37° C., read-out: Stability t1/2 in human plasma (converted)
Recorded half-life, one value per entry.
readoutKind: half-life (days)

>>> numericvalue("CC(OC(=O)[C@@H](C)NC(=O)OC(C)(C)C)c1ccc([C@H]2C[C@@]3(C)[C@@H](CC[C@@]3(O)C(F)(F)C(F)(F)F)[C@@H]3CCC4=CC(=O)CCC4=C32)cc1 (mixture of isomers) [Example 6]")
20.5
>>> numericvalue("C=CCOC(=O)N[C@@H](C)C(=O)O[C@H](C)c1ccc([C@H]2C[C@@]3(C)[C@@H](CC[C@@]3(O)C(F)(F)C(F)(F)F)[C@@H]3CCC4=CC(=O)CCC4=C32)cc1 [Example 9]")
9.62
>>> numericvalue("CC(C)C(=O)OC(C)c1ccc([C@H]2C[C@@]3(C)C(CC[C@@]3(O)C(F)(F)C(F)(F)F)C3CCC4=CC(=O)CCC4=C32)cc1 (mixture of isomers) [Example 2]")
33.5
